System tested: 1b (BK) NS5bΔ21 (Hepatitis C virus genotype 1b (isolate BK) (HCV))
Procedure details: HCV polymerase inhibition assay, genotype 1b
Type: biochemical, HCV genotype 1b (BK)
Study conditions: 1b (BK) NS5bΔ21, 33P-GTP incorporation; read-out: 1b polymerase IC50 (range class)
Measurement kind: IC50

Some solved entries appear below for comparison.
>>> df
                              smiles_record  measurement_kind     result
0  CNC(=O)c1c2cc(C3CC3)c(N(CCCNC(=O)c3cccnc3OC)S(C)(=O)=O)cc2nn1-c1ccc(Br)cc1              IC50  < 0.99 µM
1  CCN(c1cc2nn(-c3ccc(Nc4ccc(F)cc4)cc3)c(C(=O)NC)c2cc1C1CC1)S(C)(=O)=O              IC50  < 0.99 µM

// each molecule listed below needs its IC50
1. CNC(=O)c1c2cc(C3CC3)c(N(C3CCNCC3)S(C)(=O)=O)cc2nn1-c1ccc(Br)cc1
2. CNC(=O)CCC(=O)NCCCN(c1cc2nn(-c3ccc(Br)cc3)c(C(=O)NC)c2cc1C1CC1)S(C)(=O)=O
3. CNC(=O)c1c2cc(C3CC3)c(N(CCO)S(C)(=O)=O)cc2nn1-c1ccc(Oc2ccc(F)cc2)cc1
4. CNC(=O)c1c2cc(C3CC3)c(N(CCO)S(C)(=O)=O)cc2nn1-c1ccc(Nc2ccccc2F)cc1

["1 to 9.99 µM", "< 0.99 µM", "1 to 9.99 µM", "< 0.99 µM"]

Go through the list and state IC50 for each entry.
1. C=Cc1cc2c(C(=O)NC)n(-c3ccc(F)cc3)nc2cc1N(CC)S(C)(=O)=O
2. CCCNC(=O)CCN(c1cc2nn(-c3ccc(Br)cc3)c(C(=O)NC)c2cc1C1CC1)S(C)(=O)=O
3. CNC(=O)c1c2cc(C3CC3)c(N(CCC(=O)NC(C)C)S(C)(=O)=O)cc2nn1-c1ccc(Br)cc1
4. CNC(=O)c1c2cc(C3CC3)c(N(CCCOC(C)=O)S(C)(=O)=O)cc2nn1-c1ccc(Nc2ccc(F)cc2)cc1
5. CNC(=O)c1ccccc1C(=O)NCCCN(c1cc2nn(-c3ccc(Br)cc3)c(C(=O)NC)c2cc1C1CC1)S(C)(=O)=O

["1 to 9.99 µM", "1 to 9.99 µM", "1 to 9.99 µM", "< 0.99 µM", "< 0.99 µM"]

====

System tested: 1b (BK) NS5bΔ21 (Hepatitis C virus genotype 1b (isolate BK) (HCV), UniProt P26663)
Sequence (P26663 2420-2989): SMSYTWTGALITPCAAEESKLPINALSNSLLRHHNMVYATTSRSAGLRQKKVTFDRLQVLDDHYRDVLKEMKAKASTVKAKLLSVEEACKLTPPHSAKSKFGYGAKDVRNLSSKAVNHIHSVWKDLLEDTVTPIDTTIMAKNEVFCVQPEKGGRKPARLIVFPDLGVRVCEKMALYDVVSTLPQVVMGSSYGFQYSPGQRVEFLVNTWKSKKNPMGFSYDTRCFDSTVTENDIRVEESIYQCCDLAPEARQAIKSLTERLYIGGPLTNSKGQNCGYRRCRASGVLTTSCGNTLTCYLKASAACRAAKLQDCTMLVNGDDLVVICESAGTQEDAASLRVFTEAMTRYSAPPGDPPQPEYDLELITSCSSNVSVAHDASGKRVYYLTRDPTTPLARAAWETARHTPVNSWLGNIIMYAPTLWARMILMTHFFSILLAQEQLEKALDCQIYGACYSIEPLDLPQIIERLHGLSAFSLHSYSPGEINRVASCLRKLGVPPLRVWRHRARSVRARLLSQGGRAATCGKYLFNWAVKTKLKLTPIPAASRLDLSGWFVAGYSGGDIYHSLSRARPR
Procedure details: HCV polymerase inhibition assay, genotype 1b
Format: biochemical, HCV genotype 1b (BK)
Study conditions: 1b (BK) NS5bΔ21, 33P-GTP incorporation; read-out: 1b polymerase IC50 (range class)
Procedure: HCV polymerase reactions were carried out using a modified method of Howe et al., Antimicrobial Agents and Chemotherapy 2004 48(12): 4813-4821. […] Terminated reactions were transferred to DEAE 96-well filter plates, unincorporated nucleotides washed from the filters and 50 μL scintillation fluid added prior to reading on a scintillation counter. […]
Measurement kind: IC50

Worked examples, 5 compounds total:
In [3]: df
Out[3]:
                                   compound                             system_tested           result
0  CNC(=O)c1c2cc(C3CC3)c(N(CCCNCc3cccnc3)S(C)(=O)=O)cc2nn1-c1ccc(Br)cc1 [Compound 211]  1b (BK) NS5bΔ21 (Hepatitis C virus genotype 1b (isolate BK) (HCV), UniProt P26663)         < 990 nM
1  CNC(=O)c1c2cc(C3CC3)c(N(CCCNC(=O)[C@H]3C[C@H]3C(=O)O)S(C)(=O)=O)cc2nn1-c1ccc(Br)cc1 [Compound 218]  1b (BK) NS5bΔ21 (Hepatitis C virus genotype 1b (isolate BK) (HCV), UniProt P26663)         < 990 nM
2  CNC(=O)c1c2cc(C3CC3)c(N(CCO)S(C)(=O)=O)cc2nn1-c1ccc(Oc2ccccc2F)cc1 [Compound 18]  1b (BK) NS5bΔ21 (Hepatitis C virus genotype 1b (isolate BK) (HCV), UniProt P26663)  1000 to 9990 nM
3  CCOC(=O)CCC(=O)NCCCN(c1cc2nn(-c3ccc(Br)cc3)c(C(=O)NC)c2cc1C1CC1)S(C)(=O)=O [Compound 164]  1b (BK) NS5bΔ21 (Hepatitis C virus genotype 1b (isolate BK) (HCV), UniProt P26663)         < 990 nM
4  CCN(c1cc2nn(-c3ccc(F)cc3)c(C(=O)NC)c2cc1Br)S(C)(=O)=O [Compound 132]  1b (BK) NS5bΔ21 (Hepatitis C virus genotype 1b (isolate BK) (HCV), UniProt P26663)  1000 to 9990 nM

Consider the following items and state reported IC50 for each.
1. CNC(=O)c1c2cc(C3CC3)c(N(CCC(=O)N(C)C)S(C)(=O)=O)cc2nn1-c1ccc(Br)cc1 [Compound 155]
2. CNC(=O)c1c2cc(C3CC3)c(N(CCCNC(=O)c3ccccc3)S(C)(=O)=O)cc2nn1-c1ccc(Cl)cc1 [Compound 197]

1: < 990 nM; 2: < 990 nM
